From: patent US10273305B2

Test system: dual-tropic (R5/X4) HIV-2 ROD strain
Assay: microbe, parasite or virus in culture
Conditions: Human immunodeficiency virus 2, MT4, read-out: IC50 MT-4 HIV-2 ROD R5/X4 n = 3
measurement_kind: IC50 (µM)
Could you give me the number in µM? Just the number is fine.

What value of measured IC50 is listed for c1cc(CN2CCCNCCNCCCNCC2)ccc1CN1CCCNCCNCCCNCC1 [AMD3100, plerixafor] ?
0.0211
